Assay: Brain distribution after single intraperitoneal dose in FVB wild-type, Bcrp1-/-, Mdr1a/b-/- and Mdr1a/b-/- Bcrp1-/- mice
Format: in vivo, mouse (FVB)
Conditions: FVB, mouse, brain, intraperitoneal, 10 mg/kg, 10 mg/kg i.p.; 6 hrs; Wild-type; read-out: Cbrain
Procedure: At 2 and 6 hours following administration of ispinesib, whole blood and brain samples were harvested, and blood samples were centrifuged for plasma separation. Additional details on the conduct of in vivo pharmacokinetic studies are described in the supplementary methods. The drug concentrations in all samples were measured by a specific and sensitive LC-MS/MS assay for ispinesib. Kp=CbrainCplasma (Equation 4) DA= Kp, knockoutKp, wildtype (Equation 5)
QUANTITY: concentration at 6 h (µg/mL)

molecule="Cc1ccc(C(=O)N(CCCN)[C@@H](c2nc3cc(Cl)ccc3c(=O)n2Cc2ccccc2)C(C)C)cc1 [Ispinesib]" measured=0.14

* * *

assay: Brain distribution after single intraperitoneal dose in FVB wild-type, Bcrp1-/-, Mdr1a/b-/- and Mdr1a/b-/- Bcrp1-/- mice; format: in vivo, mouse (FVB); settings: FVB, mouse, brain/plasma, ip, 10 mg/kg, 10 mg/kg i.p.; 2 hrs; Mdr1a/b-/-; read-out: Kp brain (Cbrain/Cplasma)
QUANTITY: Kp at 2 h

molecule=Cc1ccc(C(=O)N(CCCN)[C@@H](c2nc3cc(Cl)ccc3c(=O)n2Cc2ccccc2)C(C)C)cc1 measured=0.35

* * *

assay: in vivo; conditions: Sprague-Dawley, rat, tumor rim, ip, 10 mg/kg
QUANTITY: Kp at 2 h

molecule=Cc1ccc(C(=O)N(CCCN)[C@@H](c2nc3cc(Cl)ccc3c(=O)n2Cc2ccccc2)C(C)C)cc1 measured=0.27

* * *

experiment: in vivo; conditions: Sprague-Dawley, rat, tumor rim, ip, 10 mg/kg
QUANTITY: concentration at 2 h (ng/mL)

compound="Cc1ccc(C(=O)N(CCCN)[C@@H](c2nc3cc(Cl)ccc3c(=O)n2Cc2ccccc2)C(C)C)cc1 [Ispinesib]" units_symbol=ng/mL measured=150

* * *

assay: in vivo; conditions: FVB, mouse, brain and plasma, ip, 10 mg/kg
QUANTITY: Kp at 2 h

molecule=Cc1ccc(C(=O)N(CCCN)[C@@H](c2nc3cc(Cl)ccc3c(=O)n2Cc2ccccc2)C(C)C)cc1 measured=0.1

* * *

experiment: Rapid equilibrium dialysis for unbound fractions in mouse plasma and brain homogenate; type: in vitro ADME; settings: FVB, mouse plasma, 37 °C, read-out: percentage of unbound drug in plasma
QUANTITY: fraction unbound at 4 h, 1 µM

molecule="Cc1ccc(C(=O)N(CCCN)[C@@H](c2nc3cc(Cl)ccc3c(=O)n2Cc2ccccc2)C(C)C)cc1 [Ispinesib]" quantity="fraction unbound at 4 h, 1 µM" measured=0.006

* * *

assay: Brain distribution after single intraperitoneal dose in FVB wild-type, Bcrp1-/-, Mdr1a/b-/- and Mdr1a/b-/- Bcrp1-/- mice; assay type: in vivo, mouse (FVB); settings: FVB, mouse, brain/plasma, ip, 10 mg/kg, 10 mg/kg i.p.; 2 hrs; Wild-type; read-out: Kp brain (Cbrain/Cplasma)
QUANTITY: Kp at 2 h

molecule=Cc1ccc(C(=O)N(CCCN)[C@@H](c2nc3cc(Cl)ccc3c(=O)n2Cc2ccccc2)C(C)C)cc1 measured=0.11

* * *

assay: Brain distribution after single intraperitoneal dose in FVB wild-type, Bcrp1-/-, Mdr1a/b-/- and Mdr1a/b-/- Bcrp1-/- mice; type: in vivo, mouse (FVB); details: FVB, mouse, plasma, intraperitoneal, 10 mg/kg, 10 mg/kg i.p.; 6 hrs; Wild-type; read-out: Cplasma
QUANTITY: concentration at 6 h (ng/mL)

molecule=Cc1ccc(C(=O)N(CCCN)[C@@H](c2nc3cc(Cl)ccc3c(=O)n2Cc2ccccc2)C(C)C)cc1 measured=870

* * *

assay: Brain distribution after single intraperitoneal dose in FVB wild-type, Bcrp1-/-, Mdr1a/b-/- and Mdr1a/b-/- Bcrp1-/- mice; type: in vivo, mouse (FVB); conditions: FVB, mouse, plasma, intraperitoneal, 10 mg/kg, 10 mg/kg i.p.; 2 hrs; Mdr1a/b-/-; read-out: Cplasma
QUANTITY: concentration at 2 h (ng/mL)

molecule=Cc1ccc(C(=O)N(CCCN)[C@@H](c2nc3cc(Cl)ccc3c(=O)n2Cc2ccccc2)C(C)C)cc1 measured=1750

* * *

assay: in vivo; conditions: FVB, mouse, brain, intraperitoneal, 10 mg/kg
QUANTITY: concentration at 2 h (µg/mL)

molecule=Cc1ccc(C(=O)N(CCCN)[C@@H](c2nc3cc(Cl)ccc3c(=O)n2Cc2ccccc2)C(C)C)cc1 quantity="concentration at 2 h" units_symbol=µg/mL measured=0.08

* * *

assay: Brain distribution after single intraperitoneal dose in FVB wild-type, Bcrp1-/-, Mdr1a/b-/- and Mdr1a/b-/- Bcrp1-/- mice; format: in vivo, mouse (FVB); details: FVB, mouse, brain, intraperitoneal, 10 mg/kg, 10 mg/kg i.p.; 6 hrs; Bcrp1a/b-/-; read-out: Cbrain
QUANTITY: concentration at 6 h

molecule=Cc1ccc(C(=O)N(CCCN)[C@@H](c2nc3cc(Cl)ccc3c(=O)n2Cc2ccccc2)C(C)C)cc1 quantity="concentration at 6 h" measured="150 ng/mL"

* * *

experiment: in vivo; conditions: FVB, mouse, brain and plasma, ip, 10 mg/kg
QUANTITY: Kp at 6 h

compound="Cc1ccc(C(=O)N(CCCN)[C@@H](c2nc3cc(Cl)ccc3c(=O)n2Cc2ccccc2)C(C)C)cc1 [Ispinesib]" measured=0.38

* * *

assay: Brain distribution after single intraperitoneal dose in FVB wild-type, Bcrp1-/-, Mdr1a/b-/- and Mdr1a/b-/- Bcrp1-/- mice; format: in vivo, mouse (FVB); conditions: FVB, mouse, plasma, intraperitoneal, 10 mg/kg, 10 mg/kg i.p.; 6 hrs; Mdr1a/b-/-; read-out: Cplasma
QUANTITY: concentration at 6 h (ng/mL)

molecule=Cc1ccc(C(=O)N(CCCN)[C@@H](c2nc3cc(Cl)ccc3c(=O)n2Cc2ccccc2)C(C)C)cc1 measured=870

* * *

assay: in vivo; conditions: FVB, mouse, plasma, iv, 5 mg/kg
QUANTITY: AUC(0-t) (ng·h/mL)

molecule=Cc1ccc(C(=O)N(CCCN)[C@@H](c2nc3cc(Cl)ccc3c(=O)n2Cc2ccccc2)C(C)C)cc1 units_symbol=ng·h/mL measured=7500
